Target: T1, Factor VIIIa (FVIIIa), from recombinant FVIII (Kogenate FS; Bayer healthcare) activated with alpha-thrombin (UniProt P00451 20-2351)
T1 sequence (looked up): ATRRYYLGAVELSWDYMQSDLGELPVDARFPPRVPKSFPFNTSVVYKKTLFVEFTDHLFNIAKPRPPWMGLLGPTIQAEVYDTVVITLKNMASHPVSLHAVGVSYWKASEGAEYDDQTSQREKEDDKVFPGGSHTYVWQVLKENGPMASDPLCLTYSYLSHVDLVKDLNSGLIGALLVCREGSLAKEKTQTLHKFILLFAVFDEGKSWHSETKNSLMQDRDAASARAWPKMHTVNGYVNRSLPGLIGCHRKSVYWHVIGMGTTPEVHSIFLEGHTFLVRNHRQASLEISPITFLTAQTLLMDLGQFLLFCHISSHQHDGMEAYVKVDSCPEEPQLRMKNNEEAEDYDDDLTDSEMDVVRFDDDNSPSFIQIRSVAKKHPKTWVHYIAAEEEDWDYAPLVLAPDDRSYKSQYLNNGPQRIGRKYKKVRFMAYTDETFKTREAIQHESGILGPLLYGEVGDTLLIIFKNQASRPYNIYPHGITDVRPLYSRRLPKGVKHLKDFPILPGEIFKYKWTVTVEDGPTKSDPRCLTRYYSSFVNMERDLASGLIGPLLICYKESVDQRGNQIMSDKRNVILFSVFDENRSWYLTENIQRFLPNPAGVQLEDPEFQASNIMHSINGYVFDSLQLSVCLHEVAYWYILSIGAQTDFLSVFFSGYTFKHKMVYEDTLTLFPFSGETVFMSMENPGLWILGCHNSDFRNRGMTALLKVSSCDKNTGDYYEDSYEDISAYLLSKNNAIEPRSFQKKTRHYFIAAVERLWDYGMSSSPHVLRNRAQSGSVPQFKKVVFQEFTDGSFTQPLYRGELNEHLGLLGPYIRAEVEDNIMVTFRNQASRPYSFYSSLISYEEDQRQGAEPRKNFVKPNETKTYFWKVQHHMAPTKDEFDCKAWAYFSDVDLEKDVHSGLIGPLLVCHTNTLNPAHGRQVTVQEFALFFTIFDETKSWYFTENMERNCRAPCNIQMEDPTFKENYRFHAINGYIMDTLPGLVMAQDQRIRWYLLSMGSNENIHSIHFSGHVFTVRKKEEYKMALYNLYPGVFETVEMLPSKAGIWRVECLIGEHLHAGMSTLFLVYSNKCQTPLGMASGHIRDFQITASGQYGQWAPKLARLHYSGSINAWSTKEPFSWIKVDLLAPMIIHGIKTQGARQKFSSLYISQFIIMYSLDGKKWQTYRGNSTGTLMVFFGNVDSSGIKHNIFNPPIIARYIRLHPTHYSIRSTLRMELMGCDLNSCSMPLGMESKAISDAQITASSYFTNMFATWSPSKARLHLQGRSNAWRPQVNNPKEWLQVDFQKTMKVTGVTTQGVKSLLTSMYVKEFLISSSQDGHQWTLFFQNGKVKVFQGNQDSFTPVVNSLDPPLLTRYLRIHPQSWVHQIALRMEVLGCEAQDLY
Assay: apparent functional KD (KD-app): FX activation rate vs FVIIIa titration, fluorogenic Xase assay with PC/PS vesicles and Ca2+
Listing: Kd of selected binders

{"Binder": "FIXa variant I251S/R318Y/R338E/E410N (enzyme, also called I86S/R150Y/R170E/E240N; I251S/R318Y/E410N/R338E) light: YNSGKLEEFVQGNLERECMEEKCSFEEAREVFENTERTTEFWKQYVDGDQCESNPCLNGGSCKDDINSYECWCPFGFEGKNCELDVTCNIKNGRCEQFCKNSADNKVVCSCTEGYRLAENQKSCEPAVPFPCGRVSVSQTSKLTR heavy: VVGGEDAKPGQFPWQVVLNGKVDAFCGGSIVNEKWIVTAAHCVETGVKITVVAGEHNIEETEHTEQKRNVSRIIPHHNYNAAINKYNHDIALLELDEPLVLNSYVTPICIADKEYTNIFLKFGSGYVSGWGRVFHKGYSALVLQYLRVPLVDRATCLESTKFTIYNNMFCAGFHEGGRDSCQGDSGGPHVTEVEGTSFLTGIISWGEECAMKGKYGIYTKVSRYVNWIKNKTKLT", "Kd [µM]": 0.0057}
{"Binder": "FIXa variant R318Y/R338E/T343R/N346D/R403E/E410N (enzyme, also called R150Y/R170E/T175R/N178D/R233E/E240N) light: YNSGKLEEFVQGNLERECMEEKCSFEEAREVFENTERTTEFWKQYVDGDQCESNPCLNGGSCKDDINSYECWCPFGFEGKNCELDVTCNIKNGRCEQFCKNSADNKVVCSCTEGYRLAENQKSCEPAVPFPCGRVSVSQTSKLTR heavy: VVGGEDAKPGQFPWQVVLNGKVDAFCGGSIVNEKWIVTAAHCVETGVKITVVAGEHNIEETEHTEQKRNVIRIIPHHNYNAAINKYNHDIALLELDEPLVLNSYVTPICIADKEYTNIFLKFGSGYVSGWGRVFHKGYSALVLQYLRVPLVDRATCLESTKFRIYDNMFCAGFHEGGRDSCQGDSGGPHVTEVEGTSFLTGIISWGEECAMKGKYGIYTKVSEYVNWIKNKTKLT", "Kd [µM]": 0.0762}
